- Test: chemical genetic growth profiling, strain panel (AID 1159580);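 further: tested at 20 µM; growth read once vehicle control cultures reached saturation at 30 °C; lower values mean less growth of the strain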
- Assay conditions: S. cerevisiae deletion strains, growth OD, locus YNL307C, strain MCK1 (second series)
Among all 5,500 compounds or so, about 2,000 (36%) were called active. Not shown: some 18% with an inconclusive outcome. No stated cut-off is given here; in the data, active means normalized growth mostly below about 0.91 (no sharp cut-off); inconclusive means no clear call, values can overlap the other calls; inactive means mostly above about 0.92. Some of the results follow.
Choose one outcome from this list and give only that: yes for active, no for inactive

Known results for compounds:
Compound	Discrete label
N/C(=N/OC(=O)c1ccccc1Cl)c1cccc(CS(=O)(=O)c2ccc(Cl)cc2)c1	no
N#C/C(=C\C=C\c1ccccc1)c1nc2ccccc2[nH]1	no
O=S(=O)(Nc1ccc(-n2nc(C(F)(F)F)cc2-c2cccs2)cc1)c1ccc(F)cc1	no
CCOC(=O)C(O)(c1ccc(NC(=O)Nc2ccc(Cl)cc2)cc1)C(F)(F)F (stereo not given)	no

Task: Would you mind telling me which call this test gave `COc1ccc(/C(C#N)=C2C=C/C(=N/O)C(Cl)=C\2)cc1` ?
Result: no

Task: I'd appreciate the recorded outcome for `CC(=O)Oc1ccc2c(=O)c(Oc3ccc(Cl)cc3)c(C)oc2c1` from this test.
Result: no

Task: Recorded call for `Cc1c(C(=O)NCCNc2ccc(C(F)(F)F)cc2[N+](=O)[O-])cnn1-c1ccc(F)cc1` ?
Result: no

Task: Please let me know the test result on file for `Cc1ccc(C(=O)Nc2ccc3ccccc3n2)cc1` .
Result: no

Task: Hi, do you know how `O=C(O)c1cccc2cccc(C(=O)O)c12` came out in this test?
Result: yes

Task: Short answer needed: outcome of this test for `COc1ccc(-c2cc(NS(=O)(=O)c3cccc(F)c3)n(-c3ccc(Cl)c(Cl)c3)n2)cc1` ?
Result: no

Every entry's value here was drawn from PubChem BioAssay AID1159580.
